A collection of binders and their measured absorbance at 405 nm after background subtraction
- target: T1, Human MASP-1 (CCP1-CCP2-SP S646A) (human, UniProt P48740 298-699, labelled with NHS-PEG4-Biotin (sites not given))
- T1 construct: biotinylated for the ELISAs; also called N-terminally Flag-tagged human MASP-1 (CCP1-CCP2-SP S646A); not shown: N-terminal Flag-tag
- T1 sequence: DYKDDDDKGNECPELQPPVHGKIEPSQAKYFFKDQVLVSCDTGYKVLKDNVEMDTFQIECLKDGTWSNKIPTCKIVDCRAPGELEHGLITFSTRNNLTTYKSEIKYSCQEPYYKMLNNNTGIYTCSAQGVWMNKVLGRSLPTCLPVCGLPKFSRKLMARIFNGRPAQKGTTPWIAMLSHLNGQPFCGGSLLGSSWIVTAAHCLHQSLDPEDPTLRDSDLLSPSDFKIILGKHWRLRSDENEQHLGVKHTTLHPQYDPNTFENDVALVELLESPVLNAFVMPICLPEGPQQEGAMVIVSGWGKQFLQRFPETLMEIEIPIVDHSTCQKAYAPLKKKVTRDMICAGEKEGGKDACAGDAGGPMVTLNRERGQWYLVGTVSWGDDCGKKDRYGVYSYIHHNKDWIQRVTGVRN
- assay: ELISA, antibody captured by goat anti-human IgG, 8 nM biotinylated antigen, streptavidin-HRP
Respond numerically; units are absorbance at 405 nm and should not be typed.

Some binders with known absorbance at 405 nm after background subtraction results, for comparison:
MAS0177hh (antibody, human IgG4 S228P, kappa, V domains shown, Rabbit/human chimeric antibody: rabbit variable regions recombined with F760G4 and kOMTC constant regions; also called anti-MASP-1 chimeric mAb MAS0177hh) VH: QSVEESGGRLVTPGTPLTLTCTASGFSLSSAYMNWVRQAPGKGLEWIGIIYASGSTWYASWAKGRFTISKTSTTVDLKITSPTTEDTATYFCARDDYGTADLWGPGTLVTVSS VL: AVVLTQTASPVSAPVGGTVTIKCQASQSIGSSLAWYQQKPGQSPKLLIYGASTLVSGVSSRFSGSRSGTEFSLTISDLECADAATYYCQNYYLSSSSADRRTFGGGTKVEIKR : 0.898
MAS0102dd (antibody, human IgG4 S228P, kappa, V domains shown, Rabbit/human chimeric antibody: rabbit variable regions recombined with F760G4 and kOMTC constant regions; also called anti-MASP-1 chimeric mAb MAS0102dd) VH: QSVEESGGRLVTPGTPLTLTCTVSGFSLSSYAMSWVRQAPGKGLEWIGIITNLDNTYYANWAKGRFTISKTSTTVDLKITSPTTEDTAAYLCARERIKRKYSYDDYGGWAFDPWGPGTLVTVSS VL: QVLTQTPSSVSGPVGGTVTINCQAIENIYRSLAWYQQKPGQPPKLLIYDTSDLASGVPSRFSGSGSGTEYTLTISGVQCDDAATYYCQSYYYSSVTYNAFGGGTKVEIKR : 1.98

Please list absorbance at 405 nm after background subtraction recorded for the binder MAS0116aa (antibody, human IgG4 S228P, kappa, V domains shown, Rabbit/human chimeric antibody: rabbit variable regions recombined with F760G4 and kOMTC constant regions; also called anti-MASP-1 chimeric mAb MAS0116aa) VH: QSLEESGGRLVTPGTPLTLTCTASGFSLSSCYMSWVRQAPGEGLEWIGTIYTGSGATYYASWAKGRFTVSITSTTVDLKITSPTTEDTATYFCARAIYPGSSSSNLCAFDLWGPGTLVTVSS VL: QVLTQTPASVSAAVGGTVTINCQASQSVYDNNWLAWYQQKPGQPPKLLIYQASSLASGVPSRFKGSGSGAQFTLTISDLECDDAATYFCQGYYAGVLYSFGGGTKVEIKR
1.72
